# key: entry, value: inhibition
TEST_TARGET: NAD-dependent protein deacetylase sirtuin-1 (Homo sapiens) (UniProt Q96EB6)
Sequence (Q96EB6 whole entry): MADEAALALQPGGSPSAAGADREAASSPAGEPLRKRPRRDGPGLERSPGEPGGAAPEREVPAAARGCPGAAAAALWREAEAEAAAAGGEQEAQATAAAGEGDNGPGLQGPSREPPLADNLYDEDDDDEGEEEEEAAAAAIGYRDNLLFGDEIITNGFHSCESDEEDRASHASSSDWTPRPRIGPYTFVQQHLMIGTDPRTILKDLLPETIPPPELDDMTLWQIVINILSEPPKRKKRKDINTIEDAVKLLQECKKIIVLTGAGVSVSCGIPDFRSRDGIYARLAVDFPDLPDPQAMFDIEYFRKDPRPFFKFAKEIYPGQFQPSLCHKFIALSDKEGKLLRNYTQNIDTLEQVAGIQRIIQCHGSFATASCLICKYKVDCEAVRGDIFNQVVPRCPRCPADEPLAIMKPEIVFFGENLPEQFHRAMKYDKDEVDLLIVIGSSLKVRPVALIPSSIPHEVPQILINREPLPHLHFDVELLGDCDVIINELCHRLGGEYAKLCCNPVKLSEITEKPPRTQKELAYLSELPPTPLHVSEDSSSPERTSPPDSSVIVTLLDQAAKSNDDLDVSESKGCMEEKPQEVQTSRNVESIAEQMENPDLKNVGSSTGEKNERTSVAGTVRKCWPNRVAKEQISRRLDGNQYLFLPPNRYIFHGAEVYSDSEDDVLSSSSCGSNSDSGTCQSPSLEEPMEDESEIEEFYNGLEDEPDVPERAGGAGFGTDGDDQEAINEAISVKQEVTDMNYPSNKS
ASSAY_COMMENT: Inhibition of human recombinant SIRT1 using fluor de Lys as substrate at 60 uM after 1 hr by fluorimeter analysis
A number alone suffices; assume %.

Use these answered entries as a reference point.
- CHEMICAL_STRUCTURE: "O=c1[nH]c(=S)n(Cc2ccccc2)c(-c2ccccc2)c1Cc1c(O)ccc2ccccc12"
  PROPERTY_MEASURED: "inhibition"
  VALUE_MEASURED: 10.8
- CHEMICAL_STRUCTURE: "CCCOc1ccc(Cn2c(-c3ccccc3)c(Cc3c(O)ccc4ccccc34)c(=O)[nH]c2=S)cc1"
  PROPERTY_MEASURED: "inhibition"
  VALUE_MEASURED: 15.6
- CHEMICAL_STRUCTURE: "CCOc1ccc(Cn2c(-c3ccccc3)c(Cc3c(O)ccc4ccccc34)c(=O)[nH]c2=S)cc1"
  PROPERTY_MEASURED: "inhibition"
  VALUE_MEASURED: 13.4

Hello, I am looking for reported inhibition with NAD-dependent protein deacetylase sirtuin-1 (Homo sapiens) (UniProt Q96EB6) for "CCCOc1ccc(Cn2c(-c3ccccc3)c(Cc3c(OC)ccc4ccccc34)c(=O)[nH]c2=S)cc1" . Could you help?
38

Hello, I am looking for reported inhibition with NAD-dependent protein deacetylase sirtuin-1 (Homo sapiens) (UniProt Q96EB6) for "COc1ccc(Cn2c(-c3ccccc3)c(Cc3ccccc3)c(=O)[nH]c2=S)cc1" . Could you help?
32.2

Hello, I am looking for reported inhibition with NAD-dependent protein deacetylase sirtuin-1 (Homo sapiens) (UniProt Q96EB6) for "CCCCOc1ccc(Cn2c(-c3ccccc3)c(Cc3c(OC)ccc4ccccc34)c(=O)[nH]c2=S)cc1" . Could you help?
32.7

Hello, I am looking for reported inhibition with NAD-dependent protein deacetylase sirtuin-1 (Homo sapiens) (UniProt Q96EB6) for "CCCCn1c(-c2ccc(Cl)cc2)c(Cc2c(OC)ccc3ccccc23)c(=O)[nH]c1=S" . Could you help?
18.4

Hello, I am looking for reported inhibition with NAD-dependent protein deacetylase sirtuin-1 (Homo sapiens) (UniProt Q96EB6) for "CCOc1ccc(Cn2c(-c3ccccc3)c(Cc3c(OCc4ccccc4)ccc4ccccc34)c(=O)[nH]c2=S)cc1" . Could you help?
36.6

Hello, I am looking for reported inhibition with NAD-dependent protein deacetylase sirtuin-1 (Homo sapiens) (UniProt Q96EB6) for "CCCCn1c(-c2ccccc2C)c(Cc2c(OC)ccc3ccccc23)c(=O)[nH]c1=S" . Could you help?
11.5

Hello, I am looking for reported inhibition with NAD-dependent protein deacetylase sirtuin-1 (Homo sapiens) (UniProt Q96EB6) for "CCCCOc1ccc(Cn2c(-c3ccccc3)c(Cc3ccccc3)c(=O)[nH]c2=S)cc1" . Could you help?
8.5
